Values were extracted from patent US20140082772A1.

Test system: second AHAS-inhibitor susceptible WOSR line
Assay: Greenhouse post-emergence herbicide crop damage, Example 2, susceptible line
Format: in vivo, Brassica napus
Settings: post-emergence at GS/BBCH 10, assessed 19 DAT
Measured ED50 (crop damage, scale 0 to 100% vs untreated control) values are reported for all entries that follow.
Lab note: write values as number then unit, every time.

Use the examples below as a reference point.
ED50 (crop damage, scale 0 to 100% vs untreated control) recorded for this molecule, COc1ncc(F)c2nc(S(=O)(=O)Nc3c(F)cccc3F)nn12 , is 0.28 g/ai/ha

The molecule CCS(=O)(=O)c1nc2ccccn2c1S(=O)(=O)NC(=O)Nc1nc(OC)cc(OC)n1 showed ED50 (crop damage, scale 0 to 100% vs untreated control) equal to 0.01 g/ai/ha

Others:
Reported ED50 (crop damage, scale 0 to 100% vs untreated control) of COC(=O)c1ccccc1S(=O)(=O)NC(=O)N(C)c1nc(C)nc(OC)n1 : 0.11 g/ai/ha

The reported ED50 (crop damage, scale 0 to 100% vs untreated control) of the molecule COC(=O)c1ccccc1S(=O)(=O)NC(=O)Nc1nc(C)nc(OC)n1 was 0.17 g/ai/ha
